// data source = PubChem BioAssay (NCI)

Please respond with reported TGI for every item in the list.
Test system: NCI-H23 lung
TEST PROTOCOL: NCI tumour cell line growth inhibition, 48 h

Lab note: need TGI for `CN(C)c1ccc2oc(=O)c3ccccc3c2c1` on NCI-H23 lung, anyone have it?
64.2 µM

What do you have for `COc1ccc(Cc2coc3ccccc3c2=O)cc1OC` ?
> 100 µM

// query: `O=C(Nc1cccc([N+](=O)[O-])c1)c1n[nH]n(-c2cccc([N+](=O)[O-])c2)c1=O`
> 100 µM

Entry `O=C(N/N=C\c1ccc(N(CCCl)CCCl)cc1[N+](=O)[O-])c1cccnc1` please
> 100 µM

Can you check `NC1=NS(=O)(=O)Nc2nc(-c3ccccc3)[nH]c21` next?
> 100 µM

Similarly, `CCN(CC)CCN1C(=O)c2c(c3c4ccccc4[nH]c3c3ccc4ccccc4c23)C1=O` ?
3.52 µM

Lookup COc1ccc(N=NC(=O)NC(CC(C)C)C(N)=O)cc1 (centres undefined)
> 100 µM

What do we get for C/C=C1\CN(C(=O)OC(C)(C)C)C1C(=O)OC(C)(C)C (centres undefined) ?
> 100 µM

Then `S=c1[nH]n2c(CCCCCCCCc3nnc4sc(=S)[nH]n34)nnc2s1` ?
> 100 µM

Would you kindly repeat that for COc1ccc2c3c([nH]c2c1[N+](=O)[O-])C(C)N(Cc1ccccc1)CC3 (centres undefined) ?
> 100 µM

Try `CC(C)(C)c1ccc(Oc2ccc(N)cn2)cc1` next.
> 100 µM

Similarly, CCCCCCCCCCCCCCCCOP(=O)(O)OCC(N)C(=O)O (centres undefined) ?
69.4 µM

Moving on to the next compound: `CCOC(=O)/C(=C/c1ccc(C(=O)OC)cc1)N(CC)CC`
> 100 µM

Same thing, different compound: CC1/C(=N\O)CC(c2ccccc2)N(C)C1c1ccccc1 (centres undefined)
> 100 µM

And for `CN(C)C(=N/O)/C(=N\O)N(C)C` ?
> 100 µM

Quick one: `COc1ncc(Nc2ncc([C@@H](C)N3CCN(S(C)(=O)=O)CC3)cc2-c2nc(C)nc(N)n2)cc1F`
> 100 µM

Next entry: `COC(=O)c1c(O)ccc2[nH]c3c(O)c4ccccc4cc3c12`
64.3 µM

Lookup `Clc1cccc(NN=Nc2ccc(-c3nc4ccccc4s3)cc2)c1`
63.3 µM

Continue with CCCCCCCCCCCC[C@@H](O)[C@H]1CCC([C@H](O)CCCCC(=O)CCCCCCCC2=C[C@H](C)OC2=O)O1 (some centres undefined)
> 50 µM

Continue with C=C(C)COC1CCCCO1 (centres undefined)
> 100 µM

Could you do the same for `Cn1ncc2c(Cl)ncnc21` , please?
> 100 µM

Same for `CN(C)CCNC(=O)c1cccc2cc3c(Cl)cccc3nc12`
3.23 µM

How about `O=C1C(Cl)=C(N(C(=O)c2ccccc2)C(=O)c2ccccc2)C(=O)c2ccccc21` ?
31.1 µM

Do the same for `CCN(Cc1ccccc1)C1CCN(Cc2cc(Br)ccc2O)CC1` please
> 100 µM

How about this compound: CC(=O)Oc1ccc2c(c1)CC[C@@H]1C2[C@@H](O[N+](=O)[O-])C[C@@]2(C)C1CC[C@@H]2O[N+](=O)[O-] (some centres undefined)
29.2 µM

Follow-up item: `COc1ccc2c(c1)c(-c1nc(-c3c[nH]c4ccncc34)cs1)cn2C`
3.39 µM

And then `CC(=O)Oc1c2c(c3n(c1=O)CCCC3)C(=O)N(c1ccccc1)C2=O` , what is it?
> 100 µM

Next entry: CC1=C2[C@@H](CC1)[C@]1(C)O[C@@](C(C)C)(C[C@H]1OC(=O)CO)[C@H]2OC(=O)C1CC1c1ccccc1 (some centres undefined)
32.4 µM

`O=C1C(c2ccc(Br)cc2)=[N+]([O-])c2ccccc21` ?
30.4 µM

Ok, now O=c1ccn(C2OC(CO)C(O)C2F)c(=O)n1Cc1ccccc1 (centres undefined)
> 100 µM

Then what about the compound `C[C@]12CC[C@H]3[C@@H](CC=C4C[C@@H](N5CCCC5)CC[C@@]43C)[C@@H]1C/C(=C\c1cccc(OCCN3CCOCC3)c1)[C@@H]2O` ?
41.6 µM

# iterate: `Cc1n[nH]c(=O)n1/N=C\c1ccccc1`
> 100 µM

Record: `Cc1cc2c(cc1Cl)S/C(=C/C(=O)O)C(Nc1ccc3ncsc3c1)=NS2(=O)=O`
> 22.5 µM

Also, `N#C/C(=C/c1ccc2c(c1)OCO2)C(=O)c1ccccc1` please.
> 100 µM

---

Tested on: SN12C renal
TEST PROTOCOL: NCI tumour cell line growth inhibition, 48 h
PARAMETER: TGI

Under SN12C renal: TGI value of `O=c1oc2ccccc2cc1-c1cn2c(n1)sc1ccccc12` ?
> 100 µM

Try this compound next: `O=C(Nc1cccc([N+](=O)[O-])c1)c1n[nH]n(-c2cccc([N+](=O)[O-])c2)c1=O`
> 100 µM

Now the compound `NC1=Nc2cc(Cl)ccc2Sc2nc3ccccc3n21`
> 100 µM

---

Test system: SK-MEL-2 melanoma
TEST PROTOCOL: NCI tumour cell line growth inhibition, 48 h
PARAMETER: TGI

Reported TGI for `Cc1ccc(S(=O)(=O)SC(C)(C)C)cc1` : what is it?
> 88.3 µM

// query: COc1ccccc1NC(=O)CC(=O)N1N=C(N2c3ccccc3Sc3ccccc32)CC1c1ccccc1 (stereo not drawn)
> 100 µM

Another: `COc1ccc([C@@H]2CC(=O)N2)cc1`
> 100 µM

Try `CC(=O)Oc1c(N2CCCCC2)c(C(=O)c2ccccc2)c(O)c2ccn(N(C)C)c12` next.
54.6 µM

// same read-out, input: `O=c1oc2ccccc2cc1-c1cn2c(n1)sc1ccccc12`
> 100 µM

Then what about the compound `CC1=C(C(=O)Nc2ccccc2)C(c2cccc3ccccc23)C(C(=O)Nc2ccccc2)=C(C)N1` ?
34.7 µM

Try `O=C(Nc1ccccc1)Nc1ccc2cc3ccc(NC(=O)Nc4ccccc4)cc3nc2c1` next.
3.24 µM

Input `Cc1csc2c1-n1cccc1C2=O`
> 100 µM

// same read-out, input: c1ccc2c3c([nH]c2c1)[C@H]1C2CCCCN2CN1CC3 (stereo partly drawn)
> 100 µM

And then C=C(NC(=O)C(=C)NC(=O)c1csc(C2=NC3c4csc(n4)C4NC(=O)c5csc(n5)C(C(C)(O)C(C)O)NC(=O)C5CSC(=N5)/C(=C/C)NC(=O)C(C(C)O)NC(=O)c5csc(n5)C3(CC2)NC(=O)C(C)NC(=O)C(=C)NC(=O)C(C)NC(=O)C(C(C)CC)NC2C=Cc3c(C(C)O)cc(nc3C2O)C(=O)OC4C)n1)C(N)=O (stereo not drawn) , what is it?
4.12 µM

Ok, now `COc1ccc2c(c1)nc(C(=O)c1ccco1)c(C(F)(F)F)[n+]2[O-]`
> 100 µM

What about this compound? `COC(=O)c1c(O)ccc2[nH]c3c(O)c4ccccc4cc3c12`
55 µM

For `COc1ccc2c(c1OC)CO[C@@H]2[C@H]1c2c(cc3c(c2OC)OCO3)CCN1S(=O)(=O)c1cn(C)cn1` then?
> 100 µM

Same again, this time with `C=CCN(CCNS(=O)(=O)c1ccc(C)cc1)S(=O)(=O)c1ccc(C)cc1`
94.3 µM

Same question for `Nc1[nH]nc2nc3ccccc3nc12` please.
> 100 µM

Can you check `C[N+](C)(C)CC(=O)N/N=C(/C(=O)Nc1ccc(Br)cc1)C1C(=O)NC(=O)NC1=O` next?
> 100 µM

Quick one: `NC1=Nc2cc(Cl)ccc2Sc2nc3ccccc3n21`
> 100 µM

Request: `O=C1/C=C(/c2ccc(O)cc2)[C@@H](O)Cc2ccc(O)cc2O1`
> 100 µM

---

I'd appreciate it if you could supply TGI values for the items below.
Test system: SF-268 CNS
TEST PROTOCOL: NCI tumour cell line growth inhibition, 48 h

Data request, read-out TGI, for `COc1ccc(Cc2coc3ccccc3c2=O)cc1OC`
> 100 µM

Then what about the compound COc1ccccc1NC(=O)CC(=O)N1N=C(N2c3ccccc3Sc3ccccc32)CC1c1ccccc1 (stereo not drawn) ?
> 100 µM

Let us now turn to `COCc1c(-c2cc3cc(C)cc(OC)c3s2)c2c(N)ncnn2c1CN1CCNC(=O)C1`
> 100 µM

Please give the result for `N#C/C(=C/c1ccc2c(c1)OCO2)C(=O)c1ccccc1` too.
> 100 µM

Also `O=C(/C=C(\S/C=C(/c1ccccc1)N1CCn2c(C(=O)c3ccccc3)c(C(=O)c3ccccc3)c(C(=O)c3ccccc3)c21)C(=O)c1ccccc1)c1ccccc1` , if possible.
> 10 µM

`C=CCN(CCNS(=O)(=O)c1ccc(C)cc1)S(=O)(=O)c1ccc(C)cc1` , same question.
> 100 µM

`Clc1ccc(-c2cn3c(nc4ccccc43)c(/C=C/c3ccco3)n2)cc1` , same question.
> 100 µM

Okay, and Cc1csc2[n+]1-c1ccccc1N(C(=O)Nc1ccccc1)C(C)C2 (stereo not drawn) ?
> 100 µM

Same thing, different compound: `NC(=O)c1ccccc1[N+](=O)[O-]`
> 100 µM

Entry `CCN(CC)CCCNc1cc(OC)cc2nc3cc(Cl)ccc3nc12` please
8.26 µM

Param item: CC1=C(SCCC(=O)OC(C[Se]C2=C(C)C(=O)c3ccccc3C2=O)C(=O)NCCCCCC(=O)OCc2ccccc2)C(=O)c2ccccc2C1=O (stereo not drawn)
19.9 µM

Try c1ccc2c3c([nH]c2c1)[C@H]1C2CCCCN2CN1CC3 (stereo partly drawn) next.
> 100 µM

Subsequent entry: COc1cc2c(c(O)c1OC)CC1CCC(=O)N1C2c1cccc2ccccc12 (stereo not drawn)
78.7 µM

Param item: CN(C)c1ccc(/C=C(\NC(=O)c2ccccc2)C2=NC(CCC(=O)O)C(=O)O2)cc1 (stereo not drawn)
> 50 µM

Next compound up: `O=C1/C=C(/c2ccc(O)cc2)[C@@H](O)Cc2ccc(O)cc2O1`
> 100 µM

Further, for `Cc1ccc(S(=O)(=O)SC(C)(C)C)cc1` ?
> 100 µM

// same read-out, input: `COc1ccc2c(c1)c(-c1nc(-c3c[nH]c4ccncc34)cs1)cn2C`
3.37 µM

Follow-up entry: `CCc1ccc(CCC(=O)Nc2ncc(Cc3ccc(Cl)cc3)s2)o1`
> 100 µM

Cool, now `COc1cc(/C=N/Nc2ncnc3c2cnn3-c2ccccc2)ccc1O`
> 25 µM

Then `CC(=O)[O-].Cn1ccnc1CNCc1nccn1C.[Cu+2].[O-][Cl+3]([O-])([O-])[O-]` ?
> 100 µM

// same read-out, input: `Cn1ncc2c(Cl)ncnc21`
> 100 µM

Same lookup for `c1csc(-c2ccsc2-c2cccs2)c1` , please.
> 100 µM

Continue with CC1=C2[C@@H](CC1)[C@]1(C)O[C@@](C(C)C)(C[C@H]1OC(=O)CO)[C@H]2OC(=O)C1CC1c1ccccc1 (stereo partly drawn)
27.9 µM

Moving on to the next compound: Cc1ccc(C2=C(C#N)C(N)OC3=C2COc2ccccc23)cc1 (stereo not drawn)
85.9 µM

// repeat for COC1=CC(=O)CC(C)C12Oc1c(Cl)c(OC)cc(OC)c1C2=O (stereo not drawn) and report
> 100 µM

// same read-out, input: `CC(=O)Nc1c(Nc2ccccc2)[nH]c(C)nc1=S`
> 100 µM

// same read-out, input: O=C(CC1OC(O)C(Cl)=C1Cl)c1cccnc1 (stereo not drawn)
> 100 µM

Then `C[N+](C)(C)CC(=O)N/N=C(/C(=O)Nc1ccc(Br)cc1)C1C(=O)NC(=O)NC1=O` ?
> 100 µM

Also, Cc1cccc(N2C(=O)C3c4[nH]c5ccccc5c4C4CCC(C(C)(C)C)CC4C3C2=O)c1 (stereo not drawn) please.
13.7 µM

What do you get for `CCN(Cc1ccccc1)C1CCN(Cc2cc(Br)ccc2O)CC1` ?
> 100 µM

Request: `Cc1ccc(/C=N/Nc2nc(Nc3ccccc3)nc(-n3nc(C)cc3C)n2)cc1`
> 100 µM

Continue with `CC(=O)c1c2c(cc3c1CC1(C3)Cc3cc4c(c(C(C)=O)c3C1)CCC4)CCC2`
> 100 µM

Record: `COc1ccc([C@@H]2CC(=O)N2)cc1`
> 100 µM

// same read-out, input: COC(=O)N[C@H](C(=O)O)C(C)O[Si](C)(C)C(C)(C)C (stereo partly drawn)
> 100 µM

Query CCOC(=O)C(NC(=O)c1ccccc1)(N1CCN(c2cc3c(cc2F)c(=O)c(C(=O)O)cn3CC)CC1)C(F)(F)F (stereo not drawn) next
> 100 µM

Another: Nc1nc([Se])c2ncn(C3OC(CO)C(O)C3O)c2n1 (stereo not drawn)
> 100 µM

Param item: `Cc1ccccc1NC(=O)c1sc2nc(C)c(C(=O)/C=C/c3ccccc3)cc2c1N`
3.58 µM

And `CNC(=O)c1c(NC(=O)c2ccc(C(C)(C)C)cc2)sc2c(CN(C)C)c(O)ccc12` ?
3.46 µM
